testTarget: human BLT1 receptor (Homo sapiens (Human))
Sequence (Q15722 whole entry): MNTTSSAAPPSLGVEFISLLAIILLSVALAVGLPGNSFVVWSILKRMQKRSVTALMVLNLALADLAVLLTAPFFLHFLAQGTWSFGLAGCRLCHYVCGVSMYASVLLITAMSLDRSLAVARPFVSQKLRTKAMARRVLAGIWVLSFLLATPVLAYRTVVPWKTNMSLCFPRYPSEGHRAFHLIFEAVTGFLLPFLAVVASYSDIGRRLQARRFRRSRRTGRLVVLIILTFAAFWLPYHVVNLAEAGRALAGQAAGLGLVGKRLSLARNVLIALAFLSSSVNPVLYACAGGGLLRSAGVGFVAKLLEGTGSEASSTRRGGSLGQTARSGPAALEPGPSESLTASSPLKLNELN
experimentDescription: BLT-1 cAMP Assay
Format: cell-based
particulars: antagonist mode; HEK293 cells recombinantly expressing human BLT1 receptor; forskolin 4 μM and LTB4 2 nM; cAMP detection
Values of EC50 strictly less than 20 nM map to 1, and values of at least 20 nM map to -1.

In [3]: df
Out[3]:
                                   compound  discretelabel
0  CS(=O)(=O)NC(=O)c1ccc(F)cc1-c1ccc2c(c1)OC[C@H](Cc1ccccn1)[C@H]2O (single isomer, unassigned)             -1
1  Cn1nccc1C[C@@H]1COc2cc(-c3ccccc3C(=O)NS(=O)(=O)C(C)(C)C)ccc2[C@H]1O (racemic)             -1
2  CC1(S(=O)(=O)NC(=O)c2ccccc2-c2ccc3c(c2)OC[C@@H](Cc2coc(-c4ccccc4)n2)[C@@H]3O)CC1 (racemic)              1

Request: I wonder whether CC1(S(=O)(=O)NC(=O)c2ccc(F)cc2-c2ccc3c(c2)OC[C@H](Cc2ccccn2)[C@H]3O)CC1 (single isomer, unassigned) has EC50 below 20 nM. Can you tell?
Result: 1

Request: Given C[C@H](c1ccccn1)C1COc2cc(-c3ccccc3C(=O)NS(=O)(=O)C3(C)CC3)ccc2C1O (stereo in doubt) , is recorded EC50 strictly lower than 20 nM?
Result: -1

Request: Just wondering, is EC50 of O=C(NS(=O)(=O)C(F)(F)F)c1ccc(F)cc1-c1ccc2c(c1)OC[C@H](Cc1ccc(-c3ccccc3)cc1)[C@H]2O (racemic) below 20 nM?
Result: 1

Request: Dear reviewer, please state whether CC1(S(=O)(=O)NC(=O)c2ccccc2-c2ccc3c(c2)OC[C@@H](Cc2ccccn2)[C@@H]3O)CC1 (single isomer, unassigned) has EC50 strictly beneath 20 nM.
Result: -1

Request: Find out if reported EC50 for Cc1nnc(C[C@@H]2COc3cc(-c4ccccc4C(=O)NS(=O)(=O)C(C)(C)C)ccc3[C@H]2O)s1 (racemic) is less than 20 nM
Result: -1

Request: Strictly below 20 nM: is that where EC50 of CC1(S(=O)(=O)NC(=O)c2ccccc2-c2ccc3c(c2)OC[C@H](Cc2coc(-c4ccccc4)n2)[C@H]3O)CC1 (single isomer, unassigned) sits?
Result: 1

Request: Confirm or reject: EC50 of CC(C)(C)S(=O)(=O)NC(=O)c1ccccc1-c1ccc2c(c1)OC[C@@H](Cc1cscn1)[C@@H]2O (single isomer, unassigned) [Example 33] lies strictly below 20 nM
Result: -1

Request: Given the entry O=C(NS(=O)(=O)C(F)(F)F)c1ccc(F)cc1-c1ccc2c(c1)OC[C@H](Cc1ccc(-c3ccccc3)cc1)[C@@H]2O (racemic) , would its reported EC50 be below 20 nM?
Result: -1

Request: I wonder whether CC1(S(=O)(=O)NC(=O)c2ccccc2-c2ccc3c(c2)OC[C@H](Cc2ccccc2)[C@H]3O)CC1 (single isomer, unassigned) has EC50 below 20 nM. Can you tell?
Result: 1

Request: is_below(EC50, 20 nM) for O=C(NS(=O)(=O)C1CC1)c1ccc(F)cc1-c1ccc2c(c1)OC[C@H](Cc1ccccn1)[C@H]2O (single isomer, unassigned) ?
Result: 1

Request: Identify whether the compound CC(C)(C)S(=O)(=O)NC(=O)c1ccc(F)cc1-c1ccc2c(c1)OC[C@H](Cc1ccccn1)[C@H]2O (single isomer, unassigned) records EC50 below 20 nM.
Result: 1

Request: EC50 under 20 nM? Item: CC(C)(C)S(=O)(=O)NC(=O)c1ccc(F)cc1-c1ccc2c(c1)OC[C@@H](Cc1ccccn1)[C@@H]2O (single isomer, unassigned)
Result: -1

Request: # TODO verify EC50 < 20 nM strictly for this compound: CC(C)(C)S(=O)(=O)NC(=O)c1ccccc1-c1ccc2c(c1)OC[C@H](Cc1coc(-c3ccccc3)n1)[C@H]2O (single isomer, unassigned)
Result: 1

Request: Determine if Cc1nnc(C[C@@H]2COc3cc(-c4ccccc4C(=O)NS(=O)(=O)C4(C)CC4)ccc3[C@H]2O)s1 (racemic) shows EC50 strictly lower than 20 nM.
Result: -1

Attribution: patent US10336733B2
